B1: GMCL1 (parent)
chain: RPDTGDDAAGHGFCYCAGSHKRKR

Variants of: B1
experiment-summary: protein stability index of a GFP-peptide fusion (GPS, HEK-293T) (PSI 1-6); higher = more stable;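 note: lentivirally expressed fusions sorted by FACS into six bins by GFP to DsRed ratio, PSI derived from sequencing read proportions per bin multiplied by bin number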
setup-conditions: c terminus: a fixed tail appended
value-kind: protein stability index
// print number alone

- variant-identifier: "A9L"
  protein stability index: 2.71
- variant-identifier: "A9G"
  protein stability index: 3.43
- variant-identifier: "G5N"
  protein stability index: 3.17
- variant-identifier: "D6Y"
  protein stability index: 3.15
- variant-identifier: "F13E"
  protein stability index: 3.99
- variant-identifier: "A8V"
  protein stability index: 3.18

Query: Recorded protein stability index for `F13Q` , please?
Reply: 3.9

Query: Recorded protein stability index for `Y15N` , please?
Reply: 2.43

Query: Recorded protein stability index for `G18Y` , please?
Reply: 2.98
